SYSTEM: BRD4 BD2 (Homo sapiens, UniProt O60885)
ASSAY_PROTOCOL: TR-FRET binding assay, BRD4 BD2
QUANTITY_MEASURED: IC50 (nM)
Use nM as the unit, but write only the number.

Determine its reported IC50: O=C(Nc1ccc(C(F)(F)F)cc1)Nc1ccc(S(=O)(=O)N2CCCC2C(=O)Nc2ccccc2)cc1 (stereo in doubt)
1070

* * *

SYSTEM: BRD4 BD1 domain (Homo sapiens, UniProt O60885)
ASSAY_PROTOCOL: TR-FRET binding assay, BRD4 BD1
QUANTITY_MEASURED: IC50 (nM)
Use nM as the unit, but write only the number.

Determine its reported IC50: O=C(Nc1ccc(C(F)(F)F)cc1)Nc1ccc(S(=O)(=O)N2CCCC2C(=O)Nc2ccccc2)cc1 (stereo in doubt) [ZL0580]
163

The reported numbers originate from patent US10975059B2.
